Target: AGTR1 (Homo sapiens)
Construct: host or cells: Pathunter CHO-K1 AGTR1 β-arrestin cell line (CHO-K1)
Sequence (P30556 1-359): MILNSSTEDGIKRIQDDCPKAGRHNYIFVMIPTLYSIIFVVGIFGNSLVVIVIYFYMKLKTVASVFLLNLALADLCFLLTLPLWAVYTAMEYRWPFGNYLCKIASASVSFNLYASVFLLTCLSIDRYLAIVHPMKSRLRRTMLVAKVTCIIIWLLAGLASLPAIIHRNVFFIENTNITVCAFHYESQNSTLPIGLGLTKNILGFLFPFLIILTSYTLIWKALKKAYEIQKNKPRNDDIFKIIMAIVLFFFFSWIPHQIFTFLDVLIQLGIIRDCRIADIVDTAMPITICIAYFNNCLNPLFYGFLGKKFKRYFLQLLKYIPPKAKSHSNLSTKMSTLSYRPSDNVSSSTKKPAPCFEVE
Test: DiscoveRx β-arrestin2 recruitment assay (enzyme complementation, Pathunter CHO-K1 AGTR1 β-arrestin cell line)
Format: cell-based
Settings: DiscoveRx β-arrestin2 recruitment, maximal response
Reported DiscoveRx β-arrestin2 Ymax (%) values are given for each entry in this list.
Unit % implied. Number only.

Observe how each entry below is paired with its result.
[
  {
    "Chemical Structure": "CCCCC(=O)N(Cc1ccc(-c2cc(-c3ccccc3)ccc2-c2noc(=O)[nH]2)cc1)C1(C(=O)O)CCCCC1",
    "Experimental System": "AGTR1 (Homo sapiens)",
    "DiscoveRx β-arrestin2 Ymax (%)": 47.4
  },
  {
    "Chemical Structure": "CCCCC(=O)N(Cc1ccc(-c2cc(Oc3cccc(OC(F)(F)F)c3)ccc2-c2nn[nH]n2)cc1)C1(C(=O)O)CCCCC1",
    "Experimental System": "AGTR1 (Homo sapiens)",
    "DiscoveRx β-arrestin2 Ymax (%)": 30.5
  },
  {
    "Chemical Structure": "CCCCC1=NC2(CCCC2)C(=O)N1Cc1ccc(-c2cc(-c3cncc(C)c3)ccc2-c2nn[nH]n2)cc1",
    "Experimental System": "AGTR1 (Homo sapiens)",
    "DiscoveRx β-arrestin2 Ymax (%)": 12.9
  }
]

# lookup: DiscoveRx β-arrestin2 Ymax (%) of CCCCC(=O)N(Cc1ccc(-c2cc(Oc3cccnc3)ccc2-c2nn[nH]n2)cc1)C1(C(=O)O)CCCCC1
35.8

Which value of DiscoveRx β-arrestin2 Ymax (%) has been reported for CCCCC1=NC2(CCOCC2)C(=O)N1Cc1ccc(-c2cc(-c3ccccc3)ccc2-c2nnn[nH]2)cc1 in the records?
19.9

GET /values?readout=DiscoveRx β-arrestin2 Ymax (%)&item= CCCCc1nc(Cl)c(C(=O)O)n1Cc1ccc(-c2cc(N3CC(C)(C)c4ccccc43)ccc2-c2noc(=O)[nH]2)cc1
32.8

DiscoveRx β-arrestin2 Ymax (%) for CCc1nc2c(C)cc(C)nc2n1Cc1ccc(-c2cc(-c3cc(C)cc(C)c3)ccc2C(=O)O)cc1 ?
88.8

---

molecular target: AGTR1 (Homo sapiens, UniProt P30556); construct: host or cells: Pathunter CHO-K1 AGTR1 β-arrestin cell line (CHO-K1); test: DiscoveRx IP1 accumulation assay (HTRF), agonist mode, Pathunter CHO-K1 AGTR1 β-arrestin cell line; type: cell-based; conditions: read-out: IP-1 EC50
Property: EC50; scope: individual compounds
A number alone suffices; assume nM.

[
  {
    "Compound": "CCc1nc2c(C)cc(C)nc2n1Cc1ccc(-c2cc(N(C)c3ccccc3)ccc2-c2nn[nH]n2)cc1",
    "Unit": "nM",
    "EC50": 32.7
  },
  {
    "Compound": "CCc1nc2c(C)cc(C)nc2n1Cc1ccc(-c2cc(-c3ccccn3)ccc2-c2nn[nH]n2)cc1",
    "Unit": "nM",
    "EC50": 15.9
  },
  {
    "Compound": "CCCCC1=NC2(CCOC2)C(=O)N1Cc1ccc(-c2cc(-c3ccccc3)ccc2-c2nnn[nH]2)cc1 (single isomer, unassigned) [Example 146]",
    "Unit": "nM",
    "EC50": 76.2
  }
]

Switching to the query record.
Any idea what its EC50 is? The compound is CCc1nc2c(C)cc(C)nc2n1Cc1ccc(-c2cc(-c3cccc4cnccc34)ccc2-c2nn[nH]n2)cc1
55.3

Where do these numbers come from? They come from patent US12037324B2.
